Molecular target: human GST-PIKFYVE (Homo sapiens, UniProt Q9Y2I7)
Construct: GST; purchased Carna biosciences 11-118
Sequence (Q9Y2I7 whole entry): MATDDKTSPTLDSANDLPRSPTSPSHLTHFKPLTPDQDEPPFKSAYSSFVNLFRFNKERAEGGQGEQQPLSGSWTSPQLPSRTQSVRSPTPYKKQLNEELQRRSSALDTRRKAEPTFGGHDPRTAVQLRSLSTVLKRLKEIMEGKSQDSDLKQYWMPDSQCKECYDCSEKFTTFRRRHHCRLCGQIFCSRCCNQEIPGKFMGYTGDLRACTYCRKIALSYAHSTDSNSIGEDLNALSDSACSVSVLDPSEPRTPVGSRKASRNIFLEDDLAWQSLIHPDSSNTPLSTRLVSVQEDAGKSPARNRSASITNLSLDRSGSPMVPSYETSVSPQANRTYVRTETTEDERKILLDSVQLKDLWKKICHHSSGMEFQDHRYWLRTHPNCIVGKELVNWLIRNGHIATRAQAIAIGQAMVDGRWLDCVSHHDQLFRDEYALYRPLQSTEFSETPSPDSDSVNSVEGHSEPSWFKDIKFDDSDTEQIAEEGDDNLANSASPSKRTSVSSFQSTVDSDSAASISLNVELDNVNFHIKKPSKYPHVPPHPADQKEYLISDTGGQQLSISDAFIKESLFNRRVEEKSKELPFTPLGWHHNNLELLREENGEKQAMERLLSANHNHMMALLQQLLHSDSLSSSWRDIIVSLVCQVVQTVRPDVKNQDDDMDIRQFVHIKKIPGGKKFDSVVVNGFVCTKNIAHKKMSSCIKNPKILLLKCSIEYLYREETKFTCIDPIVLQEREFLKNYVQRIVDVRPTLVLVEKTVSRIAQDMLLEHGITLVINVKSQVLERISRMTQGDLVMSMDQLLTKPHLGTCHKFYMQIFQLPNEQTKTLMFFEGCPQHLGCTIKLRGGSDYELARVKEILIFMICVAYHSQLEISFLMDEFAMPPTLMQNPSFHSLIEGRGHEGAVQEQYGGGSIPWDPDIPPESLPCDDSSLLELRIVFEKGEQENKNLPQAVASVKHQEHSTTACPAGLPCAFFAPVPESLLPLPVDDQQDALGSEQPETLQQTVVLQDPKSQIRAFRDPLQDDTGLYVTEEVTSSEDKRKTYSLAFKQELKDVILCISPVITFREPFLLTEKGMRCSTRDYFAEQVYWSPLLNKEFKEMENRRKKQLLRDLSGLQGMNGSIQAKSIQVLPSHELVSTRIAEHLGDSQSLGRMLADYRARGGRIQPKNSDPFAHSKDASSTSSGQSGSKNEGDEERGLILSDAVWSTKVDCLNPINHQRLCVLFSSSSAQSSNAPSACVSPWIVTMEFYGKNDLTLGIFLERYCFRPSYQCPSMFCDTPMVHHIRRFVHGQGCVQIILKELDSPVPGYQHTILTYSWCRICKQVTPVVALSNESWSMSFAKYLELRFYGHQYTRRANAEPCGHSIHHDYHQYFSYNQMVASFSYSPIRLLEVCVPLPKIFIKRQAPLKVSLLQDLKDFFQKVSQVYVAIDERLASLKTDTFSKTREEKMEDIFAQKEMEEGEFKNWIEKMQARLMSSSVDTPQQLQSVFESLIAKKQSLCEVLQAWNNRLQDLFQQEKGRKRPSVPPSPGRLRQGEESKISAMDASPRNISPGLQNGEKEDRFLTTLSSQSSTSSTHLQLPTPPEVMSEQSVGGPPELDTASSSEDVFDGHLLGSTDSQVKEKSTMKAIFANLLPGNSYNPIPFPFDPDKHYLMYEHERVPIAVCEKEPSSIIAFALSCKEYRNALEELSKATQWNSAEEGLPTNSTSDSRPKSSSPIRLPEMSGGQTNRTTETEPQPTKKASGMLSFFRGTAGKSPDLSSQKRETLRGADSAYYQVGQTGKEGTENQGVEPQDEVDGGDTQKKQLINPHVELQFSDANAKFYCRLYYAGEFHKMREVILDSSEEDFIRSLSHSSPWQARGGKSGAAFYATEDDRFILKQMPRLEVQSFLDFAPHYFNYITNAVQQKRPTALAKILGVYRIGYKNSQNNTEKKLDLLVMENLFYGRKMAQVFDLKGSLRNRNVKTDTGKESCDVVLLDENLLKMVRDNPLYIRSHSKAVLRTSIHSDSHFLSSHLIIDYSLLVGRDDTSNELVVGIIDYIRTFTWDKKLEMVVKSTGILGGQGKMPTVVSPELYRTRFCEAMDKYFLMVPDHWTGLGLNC
Assay: ADP-Glo kinase assay, enzyme inhibition activity against human PIKFYVE (Carna biosciences)
Format: biochemical
Conditions: inhibitory activity at final compound concentration 10 nM; 1 hour at room temperature
Each entry gets Condition not met if its ADP-Glo kinase assay (%, 10 nM) stays under 70%, and Condition met if its ADP-Glo kinase assay (%, 10 nM) is 70% or above.

Cc1cccc(/C=N/Nc2nc(N3CCOCC3)nc3c2ncn3CC(F)(F)c2ccccn2)c1 [Example 26]; Condition met
Cc1ccc(-n2cnc3c(N/N=C/c4cccc(C)c4)nc(N4CCOCC4)nc32)nc1 [Example 143]; Condition met
Cc1cccc(/C=N/n2cnc3c(-n4ccnc4)nc(N4CCOCC4)nc32)c1 [Example 176]; Condition not met
Cc1cccc(/C=N/Nc2nc(N3CCOCC3)nc3c2ncn3C2CCN(C(=O)c3ccccn3)CC2)c1 [Example 94]; Condition not met
Cc1cccc(/C=N/n2cnc3c(Nc4cc(C)n(C)n4)nc(N4CCOCC4)nc32)c1 [Example 188]; Condition not met
Cc1cccc(/C=N/Nc2nc(N3CCOCC3)nc3c2ncn3CC(=O)c2ccc(C(F)(F)F)cc2)c1 [Example 45]; Condition not met
Cc1cccc(/C=N/Nc2nc(N3CCOCC3)nc3c2nc(C)n3-c2cccc(Cl)c2)c1 [Example 163]; Condition not met
Cc1cccc(/C=N/Nc2nc(N3CCOCC3)nc3c2nc(C)n3CC(=O)c2ccccc2)c1 [Example 156]; Condition not met

Hey, just so you know, these numbers are from patent US20250388582A1.
